Target: γ-secretase (Homo sapiens)
Assay: Cellular γ-secretase assay (inhibition of Aβ42 secretion, AlphaLisa)
Type: cell-based
Settings: human neuroglioma H4 cells overexpressing human APP695 Swedish double mutation, 24 hr compound incubation
Measured quantity: pEC50
Formally, pEC50 is defined as -log10 of the concentration c, with c in mol/L.

Q. Look up and state reported pEC50 for CNc1nc(N[C@@H]2[C@@H]3CC[C@H]2CN(c2cc(C)ncn2)C3)nc2c1C(C)(C)CN2C1CC(F)(F)C1 [Example 13]
A. 7.44
